Reported Assessment values are given for each entry in this list.
- System: Schistosoma mansoni cercariae
- protocol_notes: Activity against Schistosoma mansoni cercariae (survival/mobility observed with a stereomagnifier)
- Parameters: key: no effect during the entire test period of 120 minutes; 1: weak effect (the cercariae have a strongly reduced mobility); 2: good effect (the cercariae are only slightly mobile and bent); 3: full effect (the cercariae are completely immobile)
- measurement_context: 500 μl/l final concentration of the active compounds; test period of 120 minutes
- Procedure: Activity Against Schistosoma mansoni Cercariae Snails (Biomphalaria glabrata) were infected by incubating each of them with 8 miracidia in 10 ml of water overnight. About 6 to 9 weeks after the infection, cercariae were obtained by irradiating the snails, which had been kept in darkness, with light, followed by collection of the swarming cercariae within 2 hours. […]

Solved entries (count: 4):
| compound | target_or_test_system | endpoint_label | recorded_result |
| --- | --- | --- | --- |
| CC(C)(C)OC(=O)N1CCCCC1CCO (centres unmarked) | Schistosoma mansoni cercariae | Assessment | 3 |
| CCCCOC(=O)N(C)CCCO | Schistosoma mansoni cercariae | Assessment | 1 |
| C=CCCOC(=O)N(C)CCCO | Schistosoma mansoni cercariae | Assessment | 2 |
| CN(CCCO)C(=O)OC1CCCCC1 | Schistosoma mansoni cercariae | Assessment | 1 |

Request: Dear colleague, I am looking for the recorded Assessment of the following compound: CCCCOC(=O)N1CCCCC1CCO (centres unmarked)
Response: 3

Request: Dear colleague, I am looking for the recorded Assessment of the following compound: CCC(C)OC(=O)N1CCCCC1CCO (centres unmarked)
Response: 2

Request: Dear colleague, I am looking for the recorded Assessment of the following compound: CCC(C)COC(=O)N(C)CCCO (centres unmarked)
Response: 1

Request: Dear colleague, I am looking for the recorded Assessment of the following compound: C=CCOC(=O)N1CCCCC1CCO (centres unmarked)
Response: 3
